- System: SF-295 CNS
- Experiment description: NCI tumour cell line growth inhibition, 48 h; in the data active = GI50 below about 0.43 µM; inactive = the rest
Labels: active, inactive

[
  {
    "Structure smiles string": "CCCCC(=O)[O-].N.N.N.N.N.[Co+3].[O-][Cl+3]([O-])([O-])[O-]",
    "Assigned class": "inactive"
  },
  {
    "Structure smiles string": "COc1ccc(C(=O)/C=C/c2cc(C(=O)c3cc(OC)c(OC)c(OC)c3)ccc2OC)cc1",
    "Assigned class": "inactive"
  },
  {
    "Structure smiles string": "C#CC[C@H](c1nc2cc(Cl)ccc2c(=O)n1Nc1ccccc1)N(CCCN)C(=O)c1cccc(Cl)c1F",
    "Assigned class": "active"
  },
  {
    "Structure smiles string": "NC(=NC1CCCCCC1)c1ccc(N2CCN(c3ccc(C(N)=NC4CCCCCC4)cc3)CC2)cc1",
    "Assigned class": "inactive"
  }
]

====

- System: HT29 colon
- Experiment description: NCI tumour cell line growth inhibition, 48 h
Consider the following compounds and their measured TGI readings.

[
  {
    "Compound": "c1cncc(C(Nc2cccc3cccnc23)Nc2cccc3cccnc23)c1",
    "TGI": "> 100 µM"
  },
  {
    "Compound": "O/N=C1\\CC2(N3CCOCC3)CCC1(Cc1ccccc1)CC2",
    "TGI": "> 100 µM"
  },
  {
    "Compound": "Cc1cc(N/N=C/c2nc(-c3ccccc3)oc2C)c2cc(Cl)ccc2n1",
    "TGI": "3.59 µM"
  },
  {
    "Compound": "CN(C)CCCNC(=O)CNC(=O)c1cc(NC(=O)c2cc(NC(=O)c3cc(NC(=O)CCNC(=O)c4cc(NC(=O)c5cc(NC(=O)c6nccn6C)cn5C)cn4C)cn3C)cn2C)cn1C",
    "TGI": "> 100 µM"
  },
  {
    "Compound": "COC(=O)CC1(O)C(C=C(C)C)C(C(=O)OC)C(=O)C(C(=O)OC)C1C(=O)OC (centres undefined)",
    "TGI": "> 100 µM"
  },
  {
    "Compound": "Cc1ccc(NC2=C(Sc3ccc(Cl)cc3)C(=O)N(Cc3ccccc3)C2=O)cc1Cl",
    "TGI": "> 100 µM"
  },
  {
    "Compound": "OCCCN(CCc1ccc(Cl)c(Cl)c1)CCN1CCCC1",
    "TGI": "> 100 µM"
  },
  {
    "Compound": "C#CC[C@H](c1nc2cc(Cl)ccc2c(=O)n1Nc1ccccc1)N(CCCN)C(=O)c1cccc(Cl)c1F",
    "TGI": "1.32 µM"
  },
  {
    "Compound": "CO/N=C1/NC(=O)/C(=C/c2ccc3ncccc3c2)S1",
    "TGI": "> 25 µM"
  },
  {
    "Compound": "Cc1nc(Nc2ccc(F)c(Cl)c2)sc1C(=O)O",
    "TGI": "3.44 µM"
  },
  {
    "Compound": "CCOc1cc2ncc(C#N)c(Nc3ccc(F)c(Cl)c3)c2cc1NC(=O)/C=C/CN(C)C",
    "TGI": "> 5.95 µM"
  },
  {
    "Compound": "COc1ccc(C2=C(c3cn(C)c4ccccc34)C(=O)NC2=O)cc1OC",
    "TGI": "> 25 µM"
  },
  {
    "Compound": "O=[N+]([O-])C(=C/C1CCCCC1)/C(=C\\C1CCCCC1)[N+](=O)[O-]",
    "TGI": "28.8 µM"
  },
  {
    "Compound": "O=S(=O)(O)Nc1ccc(-c2nc3ccccc3s2)cc1Cl",
    "TGI": "> 100 µM"
  }
]

====

- Test system: IGROV1 ovarian
- Experiment description: NCI tumour cell line growth inhibition, 48 h
Reported GI50 by item:

[
  {
    "Structure smiles string": "C#CC[C@H](c1nc2cc(Cl)ccc2c(=O)n1Nc1ccccc1)N(CCCN)C(=O)c1cccc(Cl)c1F",
    "GI50": "979 nM"
  },
  {
    "Structure smiles string": "CCOC(=O)C(Cc1c[nH]c2cc([N+](=O)[O-])ccc12)(NC(C)=O)C(=O)OCC",
    "GI50": "176000 nM"
  },
  {
    "Structure smiles string": "Cc1nn2c(/C=C3/C(=O)Nc4ccc(Cl)cc43)c(-c3ccccc3)nc2s1",
    "GI50": "1510 nM"
  }
]

====

Catalogue of TGI values
- Tested on: A498 renal
- Experiment description: NCI tumour cell line growth inhibition, 48 h

[
  {
    "Compound": "Cn1c(=O)c2[nH]c(COCc3nc4c([nH]3)c(=O)n(C)c(=O)n4C)nc2n(C)c1=O",
    "Unit abbreviation": "µM",
    "Bound operator": ">",
    "TGI": 100
  },
  {
    "Compound": "C/C=C/[C@@H]1O[C@H](CC#C[Si](C)(C)C)[C@@]2(C=O)C(C)=CC[C@H](C(C)C)[C@@H]12",
    "Unit abbreviation": "µM",
    "Bound operator": "=",
    "TGI": 89.6
  },
  {
    "Compound": "CC(=O)O/C(=C(/C#N)C(=O)O)C1C(C(=O)O)C(c2ccccc2[N+](=O)[O-])C=C(c2ccco2)N1c1ccncc1 (configuration not stated)",
    "Unit abbreviation": "µM",
    "Bound operator": "=",
    "TGI": 25
  },
  {
    "Compound": "CNS(=O)(=O)NN(C)S(=O)(=O)c1ccc(Br)cc1",
    "Unit abbreviation": "µM",
    "Bound operator": ">",
    "TGI": 100
  },
  {
    "Compound": "C=CCN1C(=O)/C(=C/c2cccs2)N=C1SC1OC(COC(=O)c2ccccc2)C(OC(=O)c2ccccc2)C1OC(=O)c1ccccc1 (configuration not stated)",
    "Unit abbreviation": "µM",
    "Bound operator": ">",
    "TGI": 100
  },
  {
    "Compound": "O=C(c1cc(-c2cc3c(cc2C(=O)N2Cc4ccccc4C[C@H]2CN2CCOCC2)OCO3)n2c1CCCC2)N(c1ccccc1)c1ccc(O)cc1",
    "Unit abbreviation": "µM",
    "Bound operator": "=",
    "TGI": 15.3
  },
  {
    "Compound": "Cc1nc(Nc2ccc(F)c(Cl)c2)sc1C(=O)O",
    "Unit abbreviation": "µM",
    "Bound operator": "=",
    "TGI": 4.16
  },
  {
    "Compound": "CCS(=O)(=O)c1ccc(OC)c(Nc2nccc(N(C)c3ccc4c(C)[nH]nc4c3)n2)c1",
    "Unit abbreviation": "µM",
    "Bound operator": "=",
    "TGI": 6.58
  },
  {
    "Compound": "C[C@@H]1CCN(C(=O)CC#N)C[C@@H]1N(C)c1ncnc2[nH]ccc12",
    "Unit abbreviation": "µM",
    "Bound operator": ">",
    "TGI": 100
  },
  {
    "Compound": "Clc1cc(Cl)cc(N2N=C(c3cccc(Nc4ccncc4)c3)CC2c2ccc(Br)cc2)c1 (configuration not stated)",
    "Unit abbreviation": "µM",
    "Bound operator": "=",
    "TGI": 2.3
  },
  {
    "Compound": "O=C1NC(N/N=C/C(O)C(O)C(O)C(O)CO)=N/C1=C\\c1cccs1 (configuration not stated)",
    "Unit abbreviation": "µM",
    "Bound operator": ">",
    "TGI": 100
  },
  {
    "Compound": "CC(=O)OC[C@@H]1[C@H]2CC(=O)O[C@H]2C[C@H]1OC(C)=O",
    "Unit abbreviation": "µM",
    "Bound operator": ">",
    "TGI": 100
  }
]

====

- System: OVCAR-8 ovarian
- Experiment description: NCI tumour cell line growth inhibition, 48 h

[
  {
    "Compound": "O=C(CNC(=O)c1cccc2ccccc12)Nc1ccccc1Oc1ccccc1",
    "TGI": "> 10 µM"
  },
  {
    "Compound": "Cc1cc(N/N=C/c2nc(-c3ccccc3)oc2C)c2cc(Cl)ccc2n1",
    "TGI": "4.4 µM"
  },
  {
    "Compound": "Cc1ccc(-c2c(C#N)c(S)n(NS(=O)(=O)c3ccccc3)c(=O)c2C#N)cc1",
    "TGI": "55.9 µM"
  },
  {
    "Compound": "C=CCN1C(=O)/C(=C/c2cccs2)N=C1SC1OC(COC(=O)c2ccccc2)C(OC(=O)c2ccccc2)C1OC(=O)c1ccccc1 (configuration not stated)",
    "TGI": "> 100 µM"
  },
  {
    "Compound": "COc1cccc(NC(=O)N/C(=C/c2ccc(N(CCC#N)CCC#N)cc2)NC(=O)c2cc([N+](=O)[O-])ccc2Cl)c1",
    "TGI": "> 100 µM"
  },
  {
    "Compound": "C(/C=N/NC1=NCCN1)=N\\NC1=NCCN1",
    "TGI": "> 100 µM"
  },
  {
    "Compound": "Cc1nn2c(/C=C3/C(=O)Nc4ccc(Cl)cc43)c(-c3ccccc3)nc2s1",
    "TGI": "5.76 µM"
  }
]
